# system.name: cGMP phosphodiesterase (PDE V) (Homo sapiens, UniProt O76074)
property.label: IC50 (nM)
Dear colleague, please return just the value in nM, with no unit written.

// assay cGMP phosphodiesterase (PDE V) (Homo sapiens, UniProt O76074), entry COc1ccc(CNc2nc(-c3ccc(C(=O)O)cc3)nc3c2c2c(n3C(C)c3ccccc3)CCCC2)cc1Cl (stereo not shown) , IC50 value = 300

----------
Structures can show the parent of a compound that is named as a salt.
Listed here are compounds together with their documented melting point.
Dear colleague, please return just the value in °C, with no unit written.

# annotated cases, reported melting point shown
compound	melting point [°C]
COc1ccc(CNc2nc(-c3ccc(C(=O)O)cc3)nc3c2c2c(n3C(C)c3ccccc3)CCCC2)cc1Cl (stereo not drawn) (as salt: potassium) [Example 1]	179
O=C(O)c1ccc(-c2nc(NCc3ccc4c(c3)OCO4)c3c4c(oc3n2)CCCC4)cc1 (as salt: salt) [Example 2]	205

# next compound below
response.value for COc1ccc(CNc2nc(CCCC(=O)O)nc3oc4c(c23)CCCC4)cc1Cl (as salt: salt) [Example 3] (field: melting point) = 205

----------
Listed here are molecules together with their documented melting point.
Where a name gives a salt, the structure may show the parent alone.

molecule	property.label	result
CCn1c2ccccc2c2c(NCc3ccc4c(c3)OCO4)nc(-c3ccc(C(=O)O)cc3)nc21 (as salt: sodium) [Example 7]	melting point	> 250 °C
COc1ccc(CNc2nc(-c3ccc(C(=O)O)cc3)nc3c2c2ccccc2n3C)cc1Cl (as salt: sodium) [Example 8]	melting point	> 250 °C

# next molecule below
response.value for COc1ccc(CNc2nc(CN3CCC(C(=O)O)CC3)nc3oc4c(c23)CCCC4)cc1Cl [Example 4] (field: melting point) = 233 to 235 °C
